Recorded pIC50, one value per entry.
- target_entity: human-KAT6A (MYST domain 507-778 aa) (Homo sapiens (Human), UniProt Q92794)
- Sequence (Q92794 507-778): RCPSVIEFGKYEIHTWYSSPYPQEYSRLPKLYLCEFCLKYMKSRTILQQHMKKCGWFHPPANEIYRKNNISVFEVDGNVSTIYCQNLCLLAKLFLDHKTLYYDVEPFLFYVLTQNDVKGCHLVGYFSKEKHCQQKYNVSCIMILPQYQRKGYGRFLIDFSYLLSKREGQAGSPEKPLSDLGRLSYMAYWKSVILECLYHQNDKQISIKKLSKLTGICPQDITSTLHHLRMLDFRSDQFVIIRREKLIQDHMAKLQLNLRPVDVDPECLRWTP
- test: KAT6A biochemical assay (TR-FRET)
- particulars: TR-FRET; histone H4 peptide 200 nM, acetyl-CoA 600 nM; read-out: KAT6A IC50
Please note pIC50 is a logarithmic value: minus log10 of concentration in mol/L. Answer with that number alone.

[[record]]
molecule = "COc1ccc(S(=N)(=O)NC(=O)c2ccc(Cn3cccn3)c(OC)n2)c(OC)c1 (stereo not shown)"
value = 6.94

[[record]]
molecule = "COc1cc(C(=O)NS(=O)(=O)c2c(OC)cccc2OCC(F)(F)F)ccc1Cn1cccn1"
value = 7.64


INPUT: Which pIC50 is reported for this molecule? COc1cc(C)cc(OC)c1[S@](=N)(=O)NC(=O)c1ccc(Cn2cccn2)c(OC)n1 [Compound 306a]
OUTPUT: 7.92

INPUT: Same question for `COc1cc(OC)c(S(=O)(=O)NC(=O)c2ncc(Cn3cccn3)c(OC)n2)c(OC)c1` please.
OUTPUT: 7.48

INPUT: Please do the same for `COc1cccc(OC)c1S(=O)(=O)NC(=O)c1ccc(Cn2cccn2)c(C(F)(F)F)n1` as well.
OUTPUT: 8.40

INPUT: Field entry: COc1cccc(OC2CCC2)c1[S@](=N)(=O)NC(=O)c1ccc(Cn2cccn2)c(OC)n1 [Compound 298a]
OUTPUT: 7.64

INPUT: Now consider COc1ccc(C(C)(O)C2CC2)cc1S(=O)(=O)NC(=O)c1ccc(Cn2cccn2)c(OC)n1 (stereo not shown) .
OUTPUT: 7.96

INPUT: Check COc1cc(OC)c([S@](=N)(=O)NC(=O)c2ccc(Cn3cccn3)c(OC)c2)c(OC)c1 [Compound 299a] too.
OUTPUT: 7.82

INPUT: Quick one: `COc1cc2c(cc1S(=O)(=O)NC(=O)c1ccc(Cn3cccn3)c(OC)n1)CCC2`
OUTPUT: 7.92

INPUT: Here is the next molecule: `COc1cc(C(=O)NS(=O)(=O)c2cc(C3CC3)ccc2OC)ccc1Cn1cccn1`
OUTPUT: 8.00
